METHOD: Tmax in BALB/c mouse at 25 mg/kg, po
Assay type: ADME, organism-based
CONDITION DETAILS: in vivo
REPORTED PROPERTY: Tmax (min)

                            molecule_smiles  measured_result
0  Clc1ccc(CN2CCCC3=C[C@H]4C[C@H](CN5CCCC[C@H]45)[C@@H]32)cc1Cl             40.2

----------
Listed here: items and their measured selectivity ratio.
METHOD: in vitro
CONDITION DETAILS: human, HEK293T cells
REPORTED PROPERTY: selectivity ratio

>>> df
                            molecule_smiles  prefix_operator  measured_result
0  O=C(c1ccc(Cl)c(Cl)c1)N1CCCC2=C[C@H]3C[C@H](CN4CCCC[C@H]34)[C@@H]21                =              2.5
1  O=S(=O)(c1ccc(Cl)c(Cl)c1)N1CCCC2=C[C@H]3C[C@H](CN4CCCC[C@H]34)[C@@H]21                >               19
2  Clc1cc(Cl)cc(CN2CCCC3=C[C@H]4C[C@H](CN5CCCC[C@H]45)[C@@H]32)c1                =              9.8
3  C1=C2CCCN(Cc3ccccc3)[C@H]2[C@@H]2C[C@H]1[C@H]1CCCCN1C2                =              7.6
4  Clc1ccc(CN2CCCC3=C[C@H]4C[C@H](CN5CCCC[C@H]45)[C@@H]32)cc1                >             20.4
5  FC(F)(F)Oc1ccc(CN2CCCC3=C[C@H]4C[C@H](CN5CCCC[C@H]45)[C@@H]32)cc1                =              6.9
6  O=C(c1cc(Cl)cc(Cl)c1)N1CCCC2=C[C@H]3C[C@H](CN4CCCC[C@H]34)[C@@H]21                >              5.7

----------
METHOD: in vitro
CONDITION DETAILS: human, HEK293T cells
Listed here: items and their measured selectivity ratio.
REPORTED PROPERTY: selectivity ratio

>>> print(df.to_string())
                            molecule_smiles  measured_result
0  FC(F)(F)Oc1ccc(CN2CCCC3=C[C@H]4C[C@H](CN5CCCC[C@H]45)[C@@H]32)cc1              7.9
1  N#Cc1cccc(S(=O)(=O)N2CCCC3=C[C@H]4C[C@H](CN5CCCC[C@H]45)[C@@H]32)c1            > 2.9
2  Fc1ccc(CN2CCCC3=C[C@H]4C[C@H](CN5CCCC[C@H]45)[C@@H]32)cc1           > 11.8
3  C1=C2CCCN[C@H]2[C@@H]2C[C@H]1[C@H]1CCCCN1C2           > 16.1
4  O=C(c1ccc(Cl)cc1)N1CCCC2=C[C@H]3C[C@H](CN4CCCC[C@H]34)[C@@H]21            > 5.9
5  Clc1ccc(CN2CCCC3=C[C@H]4C[C@H](CN5CCCC[C@H]45)[C@@H]32)cc1           > 16.8
6  C1=C2CCCN(Cc3ccccc3)[C@H]2[C@@H]2C[C@H]1[C@H]1CCCCN1C2               11
7  Clc1ccc(CCCN2CCCC3=C[C@H]4C[C@H](CN5CCCC[C@H]45)[C@@H]32)cc1Cl                5

----------
METHOD: Half life in BALB/c mouse at 25 mg/kg, po
Format: ADME, organism-based
CONDITION DETAILS: in vivo
REPORTED PROPERTY: half-life

>>> df
                            molecule_smiles  measured_result
0  Clc1ccc(CN2CCCC3=C[C@H]4C[C@H](CN5CCCC[C@H]45)[C@@H]32)cc1Cl           4.14 h

----------
Tested on: Ebolavirus
METHOD: microbe, parasite or virus in culture
Format: functional, cell-based
CONDITION DETAILS: Orthoebolavirus, HEK-293T
pEC50: −log10 of the molar value.
I would appreciate it if you labelled entries label 1 when pEC50 is 5 or higher, otherwise label 0.

In [3]: df
Out[3]:
                            molecule_smiles  category
0  Cc1ccccc1CN1CCCC2=C[C@H]3C[C@H](CN4CCCC[C@H]34)[C@@H]21   label 0
1  Clc1ccc(CN2CCCC3=C[C@H]4C[C@H](CN5CCCC[C@H]45)[C@@H]32)cc1Cl   label 1
2  C1=C2CCCN(Cc3ccccc3)[C@H]2[C@@H]2C[C@H]1[C@H]1CCCCN1C2   label 0
3  N#Cc1cccc(S(=O)(=O)N2CCCC3=C[C@H]4C[C@H](CN5CCCC[C@H]45)[C@@H]32)c1   label 0
4  O=S(=O)(c1cccs1)N1CCCC2=C[C@H]3C[C@H](CN4CCCC[C@H]34)[C@@H]21   label 0

----------
METHOD: in vitro
CONDITION DETAILS: human, HEK293T cells
REPORTED PROPERTY: selectivity ratio

                            molecule_smiles  reported_property  measured_result
0  O=C(c1ccc(Cl)cc1)N1CCCC2=C[C@H]3C[C@H](CN4CCCC[C@H]34)[C@@H]21  selectivity ratio            > 1.8
1  C1=C2CCCN[C@H]2[C@@H]2C[C@H]1[C@H]1CCCCN1C2  selectivity ratio           > 19.6
2  Clc1ccc(CN2CCCC3=C[C@H]4C[C@H](CN5CCCC[C@H]45)[C@@H]32)cc1Cl  selectivity ratio           > 28.2
3  O=S(=O)(c1cc(Cl)cc(Cl)c1)N1CCCC2=C[C@H]3C[C@H](CN4CCCC[C@H]34)[C@@H]21  selectivity ratio            > 7.4

----------
Listed here: items and their measured pEC50.
System: Ebolavirus
METHOD: microbe, parasite or virus in culture
Assay type: functional, cell-based
CONDITION DETAILS: Orthoebolavirus, HEK-293T
pEC50: −log10 of the molar value.
REPORTED PROPERTY: pEC50

>>> print(df.to_string())
                            molecule_smiles  measured_result
0  O=C(c1ccc(Cl)c(Cl)c1)N1CCCC2=C[C@H]3C[C@H](CN4CCCC[C@H]34)[C@@H]21             4.31
1  Fc1ccc(CN2CCCC3=C[C@H]4C[C@H](CN5CCCC[C@H]45)[C@@H]32)cc1             4.77
2  O=C(c1cc(Cl)cc(Cl)c1)N1CCCC2=C[C@H]3C[C@H](CN4CCCC[C@H]34)[C@@H]21             4.40
3  Clc1ccc(CN2CCCC3=C[C@H]4C[C@H](CN5CCCC[C@H]45)[C@@H]32)cc1             4.92
4  Clc1cc(Cl)cc(CCN2CCCC3=C[C@H]4C[C@H](CN5CCCC[C@H]45)[C@@H]32)c1             5.24
5  Clc1ccc(CCN2CCCC3=C[C@H]4C[C@H](CN5CCCC[C@H]45)[C@@H]32)cc1             5.22
6  O=S(=O)(c1ccc(Cl)c(Cl)c1)N1CCCC2=C[C@H]3C[C@H](CN4CCCC[C@H]34)[C@@H]21             4.62

----------
METHOD: in vitro
CONDITION DETAILS: human, HEK293T cells
REPORTED PROPERTY: selectivity ratio

>>> df
                            molecule_smiles  reported_property  measured_result
0  O=S(=O)(c1cc(Cl)cc(Cl)c1)N1CCCC2=C[C@H]3C[C@H](CN4CCCC[C@H]34)[C@@H]21  selectivity ratio           > 18.9
1  Clc1ccc(CN2CCCC3=C[C@H]4C[C@H](CN5CCCC[C@H]45)[C@@H]32)cc1Cl  selectivity ratio           > 41.7
2  O=S(=O)(c1cccs1)N1CCCC2=C[C@H]3C[C@H](CN4CCCC[C@H]34)[C@@H]21  selectivity ratio              > 6

----------
Listed here: items and their measured selectivity ratio.
METHOD: in vitro
CONDITION DETAILS: human, HEK293T cells
REPORTED PROPERTY: selectivity ratio

                            molecule_smiles  measured_result
0  O=C(c1cc(Cl)cc(Cl)c1)N1CCCC2=C[C@H]3C[C@H](CN4CCCC[C@H]34)[C@@H]21              > 5
1  O=S(=O)(c1ccc(Cl)cc1)N1CCCC2=C[C@H]3C[C@H](CN4CCCC[C@H]34)[C@@H]21            > 9.2
2  O=S(=O)(c1ccc(Cl)c(Cl)c1)N1CCCC2=C[C@H]3C[C@H](CN4CCCC[C@H]34)[C@@H]21            > 8.3
3  Clc1ccc(CN2CCCC3=C[C@H]4C[C@H](CN5CCCC[C@H]45)[C@@H]32)c(Cl)c1           > 30.3
4  COc1cccc(CN2CCCC3=C[C@H]4C[C@H](CN5CCCC[C@H]45)[C@@H]32)c1           > 16.5
